Where do these numbers come from? They come from PubChem BioAssay AID651717.

# Test system: mESC Bmi1-luciferase reporter, firefly/renilla ratio, 24 h
# PROTOCOL DETAILS: compounds raising Bmi1 reporter signal – mouse embryonic stem cells, luciferase, cherry-pick, esBAF inhibitor project, dose response (AID 651717);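 also: luciferase knocked into Bmi1 locus with EF-1a renilla as cell number control; rising ratio signals esBAF inhibition which derepresses Bmi1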
QUANTITY: AC40

Some solved entries appear below for comparison.
> print(dat)
                                   compound  experimental.result
1                O=c1c2ccccc2oc2cc(Br)ccc12              7.16 µM
2  O=C(O)c1ccc2c(c1)C(=O)N(CCc1c[nH]c3ccccc13)C2=O              5.77 µM
3         O=C(CN1CCCCC1)Nc1nc(-c2ccccc2)cs1              11.5 µM
4  O=C(c1c(F)cccc1F)N1CCCC(c2nc(-c3cccs3)no2)C1 (stereo unspecified)              11.8 µM
5         Cc1cc(Br)ccc1OCc1nc(-c2cccnc2)no1              9.06 µM

Now for a further compound.
// field: AC40; key: C=CCn1c(=O)c(C(=O)Nc2ccc(C)cc2)c(O)c2ccccc21 ; value = 13.1 µM
